Target: Heme
Assay: Binding affinity to heme assessed as inhibition of beta-hematin formation by NP40 detergent based assay
MEASURED_ATTRIBUTE: pIC50
One number for each entry, as −log10 of the molar value.

Sample records with pIC50:
What does the record list as pIC50 for C[C@H]1[C@H](OC(=O)CCC(=O)NCCCNc2nc3ccccc3c3[nH]c4ccccc4c23)O[C@@H]2O[C@@]3(C)CC[C@H]4[C@H](C)CC[C@@H]1[C@@]24OO3 ? 4.80

What does the record list as pIC50 for C[C@H]1[C@H](OC(=O)CCC(=O)NCCCNc2c3ccccc3nc3c2[nH]c2ccccc23)O[C@@H]2O[C@@]3(C)CC[C@H]4[C@H](C)CC[C@@H]1[C@@]24OO3 ? 4.77

What does the record list as pIC50 for C[C@H]1[C@H](OC(=O)CCC(=O)NCC(C)(C)CNc2c3c4ccccc4nc-3n(C)c3ccccc23)O[C@@H]2O[C@@]3(C)CC[C@H]4CCC[C@@H]1[C@]42OO3 ? 4.15

What does the record list as pIC50 for NCCCNc1c2ccccc2nc2c1[nH]c1ccccc12 ? 4.77

What does the record list as pIC50 for C[C@H]1[C@H](OC(=O)CCC(=O)NCC(C)(C)CNc2c3c4ccccc4nc-3n(C)c3ccc(Cl)cc23)O[C@@H]2O[C@@]3(C)CC[C@H]4CCC[C@@H]1[C@]42OO3 ? 4.42

Continuing:
What does the record list as pIC50 for COC(=O)c1ccc2c(c1)c(NCCCNC(=O)CCC(=O)O[C@@H]1O[C@@H]3O[C@@]4(C)CC[C@H]5CCC[C@@H]([C@H]1C)[C@]53OO4)c1c3ccccc3nc-1n2C ? 4.53

---

Test: Selectivity index, ratio of IC50 for rat L6 cells to IC50 for chloroquine-resistant Plasmodium falciparum K1
Type: toxicity, cell-based
Details: L6 cells (cytotoxicity) versus Plasmodium falciparum K1, read-out: Ratio IC50
MEASURED_ATTRIBUTE: selectivity ratio
Numbers only.

What does the record list as selectivity ratio for COC(=O)c1ccc2c(c1)c(NCC(O)CNC(=O)CCC(=O)O[C@@H]1O[C@@H]3O[C@@]4(C)CC[C@H]5CCC[C@@H]([C@H]1C)[C@]53OO4)c1c3ccccc3nc-1n2C (stereo partly drawn) ? 3060

What does the record list as selectivity ratio for C[C@H]1[C@H](OC(=O)CCC(=O)NCC(C)(C)CNc2c3c4ccccc4nc-3n(C)c3ccccc23)O[C@@H]2O[C@@]3(C)CC[C@H]4CCC[C@@H]1[C@]42OO3 ? 3180

Please look at the following molecule next.
What does the record list as selectivity ratio for C[C@H]1[C@H](OC(=O)CCC(=O)NCCCNc2c3c4ccccc4nc-3n(C)c3ccccc23)O[C@@H]2O[C@@]3(C)CC[C@H]4CCC[C@@H]1[C@]42OO3 ? 3640

---

Test: Selectivity index, ratio of IC50 for rat L6 cells to IC50 for chloroquine-sensitive Plasmodium falciparum NF54
Assay type: toxicity, cell-based
Details: L6 cells (cytotoxicity) versus Plasmodium falciparum NF54, read-out: Ratio IC50
The label depends only on selectivity ratio: Met if it is at least 200, Not met if it is smaller.

Has NCCCNc1c2ccccc2nc2c1[nH]c1ccccc12 a recorded selectivity ratio greater than or equal to 200? Not met

---

Assay: Selectivity index, ratio of IC50 for rat L6 cells to IC50 for chloroquine-sensitive Plasmodium falciparum NF54
Format: toxicity, cell-based
Conditions: L6 cells (cytotoxicity) versus Plasmodium falciparum NF54, read-out: Ratio IC50
The label depends only on selectivity ratio: Fulfilled if it is at least 900, Not fulfilled if it is smaller.

Has C[C@H]1[C@H](OC(=O)CCC(=O)NCCCNc2c3c4ccccc4nc-3n(C)c3ccccc23)O[C@@H]2O[C@@]3(C)CC[C@H]4CCC[C@@H]1[C@]42OO3 a recorded selectivity ratio greater than or equal to 900? Fulfilled

Continuing:
Has COC(=O)c1ccc2c(c1)c(NCC(C)(C)CNC(=O)CCC(=O)O[C@@H]1O[C@@H]3O[C@@]4(C)CC[C@H]5CCC[C@@H]([C@H]1C)[C@]53OO4)c1c3ccccc3nc-1n2C a recorded selectivity ratio greater than or equal to 900? Not fulfilled

Has C[C@H]1[C@H](OC(=O)CCC(=O)NCC(C)(C)CNc2c3c4ccccc4nc-3n(C)c3ccc(Cl)cc23)O[C@@H]2O[C@@]3(C)CC[C@H]4CCC[C@@H]1[C@]42OO3 a recorded selectivity ratio greater than or equal to 900? Not fulfilled

Has COC(=O)c1ccc2c(c1)c(NCC(O)CNC(=O)CCC(=O)O[C@@H]1O[C@@H]3O[C@@]4(C)CC[C@H]5CCC[C@@H]([C@H]1C)[C@]53OO4)c1c3ccccc3nc-1n2C (stereo not given in full) a recorded selectivity ratio greater than or equal to 900? Not fulfilled

Has COC(=O)c1ccc2c(c1)c(NCCCNC(=O)CCC(=O)O[C@@H]1O[C@@H]3O[C@@]4(C)CC[C@H]5CCC[C@@H]([C@H]1C)[C@]53OO4)c1c3ccccc3nc-1n2C a recorded selectivity ratio greater than or equal to 900? Fulfilled

---

Please respond with reported IC50 for every item in the list.
Target: Heme
Experiment: Binding affinity to heme assessed as inhibition of beta-hematin formation by NP40 detergent based assay
Answers are plain numbers, in µM.

Sample records with IC50:
What does the record list as IC50 for C[C@H]1[C@H](OC(=O)CCC(=O)NCCCNc2c3c4ccccc4nc-3n(C)c3ccccc23)O[C@@H]2O[C@@]3(C)CC[C@H]4CCC[C@@H]1[C@]42OO3 ? 222

What does the record list as IC50 for COC(=O)c1ccc2c(c1)c(NCCCN)c1c3ccccc3nc-1n2C ? 104

What does the record list as IC50 for NCCCNc1nc2ccccc2c2[nH]c3ccccc3c12 ? 627

What does the record list as IC50 for COC(=O)c1ccc2c(c1)c(NCC(O)CNC(=O)CCC(=O)O[C@@H]1O[C@@H]3O[C@@]4(C)CC[C@H]5CCC[C@@H]([C@H]1C)[C@]53OO4)c1c3ccccc3nc-1n2C (stereo partly specified) ? 41.7

What does the record list as IC50 for COC(=O)c1ccc2c(c1)c(NCC(C)(C)CNC(=O)CCC(=O)O[C@@H]1O[C@@H]3O[C@@]4(C)CC[C@H]5CCC[C@@H]([C@H]1C)[C@]53OO4)c1c3ccccc3nc-1n2C ? 25.8

Please look at the following molecule next.
What does the record list as IC50 for C[C@H]1[C@H](OC(=O)CCC(=O)NCC(C)(C)CNc2c3c4ccccc4nc-3n(C)c3ccc(Br)cc23)O[C@@H]2O[C@@]3(C)CC[C@H]4CCC[C@@H]1[C@]42OO3 ? 28.9

---

Tested on: L6
Test: Cytotoxicity against rat L6 cells
Assay type: cell-based
MEASURED_ATTRIBUTE: IC50 (nM)
Numbers only, in nM.

Sample records with IC50:
What does the record list as IC50 for COC(=O)c1ccc2c(c1)c(NCC(C)(C)CNC(=O)CCC(=O)O[C@@H]1O[C@@H]3O[C@@]4(C)CC[C@H]5CCC[C@@H]([C@H]1C)[C@]53OO4)c1c3ccccc3nc-1n2C ? 695

What does the record list as IC50 for C[C@H]1[C@H](OC(=O)CCC(=O)NCCCNc2c3ccccc3nc3c2[nH]c2ccccc23)O[C@@H]2O[C@@]3(C)CC[C@H]4[C@H](C)CC[C@@H]1[C@@]24OO3 ? 2620

What does the record list as IC50 for C[C@H]1[C@H](OC(=O)CCC(=O)NCCCNc2c3c4ccccc4nc-3n(C)c3ccccc23)O[C@@H]2O[C@@]3(C)CC[C@H]4CCC[C@@H]1[C@]42OO3 ? 1530

# map each compound to its IC50
1. C[C@H]1[C@H](OC(=O)CCC(=O)NCC(C)(C)CNc2c3c4ccccc4nc-3n(C)c3ccc(Br)cc23)O[C@@H]2O[C@@]3(C)CC[C@H]4CCC[C@@H]1[C@]42OO3
2. COC(=O)c1ccc2c(c1)c(NCCCNC(=O)CCC(=O)O[C@@H]1O[C@@H]3O[C@@]4(C)CC[C@H]5CCC[C@@H]([C@H]1C)[C@]53OO4)c1c3ccccc3nc-1n2C
3. NCCCNc1c2ccccc2nc2c1[nH]c1ccccc12

[991, 3720, 276]

# map each compound to its IC50
1. C[C@H]1[C@H](OC(=O)CCC(=O)NCC(C)(C)CNc2c3c4ccccc4nc-3n(C)c3ccc(Cl)cc23)O[C@@H]2O[C@@]3(C)CC[C@H]4CCC[C@@H]1[C@]42OO3
2. COC(=O)c1ccc2c(c1)c(NCC(O)CNC(=O)CCC(=O)O[C@@H]1O[C@@H]3O[C@@]4(C)CC[C@H]5CCC[C@@H]([C@H]1C)[C@]53OO4)c1c3ccccc3nc-1n2C (stereo not given in full)
3. C[C@H]1[C@H](OC(=O)CCC(=O)NCC(C)(C)CNc2c3c4ccccc4nc-3n(C)c3ccccc23)O[C@@H]2O[C@@]3(C)CC[C@H]4CCC[C@@H]1[C@]42OO3
4. C[C@H]1[C@H](OC(=O)CCC(=O)NCCCNc2nc3ccccc3c3[nH]c4ccccc4c23)O[C@@H]2O[C@@]3(C)CC[C@H]4[C@H](C)CC[C@@H]1[C@@]24OO3

[1280, 1220, 2960, 2200]
